Below is a list of entries, each paired with its recorded Inhibition value.
test system: Plasmodium falciparum; experiment: GSK_TCMDC: Inhibition of Plasmodium falciparum 3D7 in whole red blood cells, using parasite LDH activity as an index of growth. Test compounds present at 2uM; format: functional
Readout: Inhibition (%)

>>> reading("O=C(NC1CC1)c1cnc(N2CCC(COc3cccc(F)c3)CC2)c(Cl)c1")
89
>>> reading("O=C(Nc1cccc(CN2CCN(Cc3ccc(O)cc3)CC2)c1)c1cccc(C(F)(F)F)c1.O=C(O)C(F)(F)F")
91
>>> reading("CC1CCCCC1N(C)C1CCN(CCCNC(=O)C=Cc2cccc(C(F)(F)F)c2)CC1 (stereo not drawn)")
100

Data credit: ChEMBL document CHEMBL1157539
